target: Interferon-induced, double-stranded RNA-activated protein kinase (Homo sapiens); test: Inhibition of PKR (unknown origin)
Sequence (P19525 whole entry): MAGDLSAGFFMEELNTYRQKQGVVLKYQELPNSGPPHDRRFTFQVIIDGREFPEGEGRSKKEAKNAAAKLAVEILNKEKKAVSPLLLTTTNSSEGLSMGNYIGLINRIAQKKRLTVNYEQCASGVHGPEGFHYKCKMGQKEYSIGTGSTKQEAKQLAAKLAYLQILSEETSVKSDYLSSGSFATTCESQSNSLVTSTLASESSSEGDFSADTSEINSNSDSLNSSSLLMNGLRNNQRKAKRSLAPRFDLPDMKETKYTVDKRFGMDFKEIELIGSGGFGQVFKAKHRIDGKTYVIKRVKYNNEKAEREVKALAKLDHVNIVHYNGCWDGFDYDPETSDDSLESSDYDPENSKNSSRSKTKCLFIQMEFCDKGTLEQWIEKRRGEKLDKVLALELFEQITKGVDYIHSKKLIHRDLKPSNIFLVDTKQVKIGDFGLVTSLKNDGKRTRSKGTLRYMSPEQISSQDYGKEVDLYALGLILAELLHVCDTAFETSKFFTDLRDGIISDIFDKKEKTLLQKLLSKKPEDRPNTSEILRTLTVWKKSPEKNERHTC
pEC50: −log10 of the molar value.
PROPERTY_MEASURED: pEC50

1: CCc1ccc(OC(F)(F)F)cc1CC(=O)N1CCc2cc(-c3cn(CC)c4ncnc(N)c34)ccc21
2: CCc1ccc(OC(F)(F)F)cc1CC(=O)N1CCc2cc(-c3nn(CC)c4ncnc(N)c34)ccc21
Prompt: From the items above, decide which of 1 and 2 has the lower pEC50 reading. // respond with label for picked entry
Completion: 2
